tested on: Escherichia coli; assay: Antibacterial activity against Escherichia coli MTCC 724 at 50 ug/ml after 24 hrs by disc diffusion method; format: functional; details: MTCC 724, 24 h, read-out: IZ
Tick yes (1) if zone of inhibition at 50 µg/mL is 8 mm or greater. Tick no (0) if zone of inhibition at 50 µg/mL is less than 8 mm.

# SMILES INPUT, ASSIGNED CLASS
measured = [
    ("CCOC(=O)c1c(-c2ccccc2)nn(-c2ccccc2)c1COCc1ccccc1", "no (0)"),
    ("CN(C)[C@@H]1C(O)=C(C(N)=O)C(=O)[C@@]2(O)C(O)=C3C(=O)c4c(O)cccc4[C@@](C)(O)[C@H]3C[C@@H]12", "yes (1)"),
    ("CCOC(=O)c1c(-c2ccccc2)nn(-c2ccccc2)c1COc1ccc(C=O)cc1OC", "no (0)"),
    ("CCOC(=O)c1c(-c2ccccc2)nn(-c2ccccc2)c1COc1cc(OC)c(C=O)c(OC)c1", "yes (1)"),
]

These entries and their values trace back to ChEMBL document CHEMBL3603774.
